target: Ribosomal protein S6 kinase alpha-3 (Homo sapiens) (UniProt P51812); conditions: at 10 µM
Sequence (P51812 whole entry): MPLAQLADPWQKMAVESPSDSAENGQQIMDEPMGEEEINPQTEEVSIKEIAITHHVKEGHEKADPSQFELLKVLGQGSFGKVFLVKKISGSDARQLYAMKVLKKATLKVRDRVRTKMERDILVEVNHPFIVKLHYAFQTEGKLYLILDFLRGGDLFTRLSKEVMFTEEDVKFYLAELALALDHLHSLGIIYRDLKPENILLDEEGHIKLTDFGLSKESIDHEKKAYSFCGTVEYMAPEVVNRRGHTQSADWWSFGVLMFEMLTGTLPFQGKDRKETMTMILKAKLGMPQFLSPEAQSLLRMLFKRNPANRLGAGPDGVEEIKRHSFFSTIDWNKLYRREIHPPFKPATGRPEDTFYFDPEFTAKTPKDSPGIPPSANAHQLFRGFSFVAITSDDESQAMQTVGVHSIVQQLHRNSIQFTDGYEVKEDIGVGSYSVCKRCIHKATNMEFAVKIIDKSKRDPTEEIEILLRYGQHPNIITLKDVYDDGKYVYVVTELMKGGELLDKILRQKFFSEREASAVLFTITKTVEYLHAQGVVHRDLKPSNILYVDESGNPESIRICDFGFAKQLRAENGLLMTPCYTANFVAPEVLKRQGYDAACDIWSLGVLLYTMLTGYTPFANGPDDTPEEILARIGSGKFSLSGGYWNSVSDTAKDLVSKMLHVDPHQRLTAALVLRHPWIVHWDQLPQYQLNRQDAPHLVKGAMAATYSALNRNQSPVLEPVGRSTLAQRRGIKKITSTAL
Recorded residual activity values for a group of molecules are listed next.

{"MOLECULAR STRING": "Cn1nc2c3c(cccc31)C(=O)c1ccccc1-2", "residual activity": "42%"}
{"MOLECULAR STRING": "Nc1cccc(-c2cc3c(Oc4cccc(O)c4)ncnc3[nH]2)c1", "residual activity": "32%"}
{"MOLECULAR STRING": "CNc1cc2c(Nc3cccc(Br)c3)ncnc2cn1", "residual activity": "71%"}
{"MOLECULAR STRING": "Cc1nc(-c2ccccc2)c(-c2ccncc2)o1", "residual activity": "64%"}
{"MOLECULAR STRING": "O=c1cc(-c2cccc3c2Sc2ccccc2S3)oc(N2CCOCC2)c1", "residual activity": "93%"}
{"MOLECULAR STRING": "N#CCCc1ccc2c(c1)-c1[nH]c3ccc([N+](=O)[O-])cc3c1CC(=O)N2", "residual activity": "3%"}
{"MOLECULAR STRING": "O=C(O)c1ccc2c3c1cccc3c(=O)n1c3ccccc3nc21", "residual activity": "37%"}
{"MOLECULAR STRING": "Nc1n[nH]c2nnc(-c3c(-c4ccccc4)nn4ccccc34)cc12", "residual activity": "96%"}
{"MOLECULAR STRING": "N#C/C(=C(\\N)Sc1ccc(N)cc1)c1ccccc1C(F)(F)F", "residual activity": "15%"}
{"MOLECULAR STRING": "CC(C)n1cnc2/c(=N/c3cccc(Cl)c3)nc(NCCO)[nH]c21", "residual activity": "6%"}
{"MOLECULAR STRING": "O=Nc1c(-c2c(O)[nH]c3ccccc23)[nH]c2ccccc12", "residual activity": "7%"}
{"MOLECULAR STRING": "N#CC(C#N)=C(N)/C(C#N)=C/c1ccc(O)cc1", "residual activity": "27%"}
{"MOLECULAR STRING": "Cc1cc(Nc2nc(-c3ccccc3)nc3ccccc23)n[nH]1", "residual activity": "11%"}
{"MOLECULAR STRING": "CCOc1cc2ncnc(Nc3cccc(Br)c3)c2cc1OCC", "residual activity": "40%"}
{"MOLECULAR STRING": "CC[n+]1c(/C=C/N(C)c2ccccc2)n(-c2ccccc2)c2ccc(-c3nc4ccccc4s3)cc21", "residual activity": "64%"}

----------
target: Tyrosine-protein kinase BTK (Homo sapiens) (UniProt Q06187); conditions: at 10 µM
Sequence (Q06187 whole entry): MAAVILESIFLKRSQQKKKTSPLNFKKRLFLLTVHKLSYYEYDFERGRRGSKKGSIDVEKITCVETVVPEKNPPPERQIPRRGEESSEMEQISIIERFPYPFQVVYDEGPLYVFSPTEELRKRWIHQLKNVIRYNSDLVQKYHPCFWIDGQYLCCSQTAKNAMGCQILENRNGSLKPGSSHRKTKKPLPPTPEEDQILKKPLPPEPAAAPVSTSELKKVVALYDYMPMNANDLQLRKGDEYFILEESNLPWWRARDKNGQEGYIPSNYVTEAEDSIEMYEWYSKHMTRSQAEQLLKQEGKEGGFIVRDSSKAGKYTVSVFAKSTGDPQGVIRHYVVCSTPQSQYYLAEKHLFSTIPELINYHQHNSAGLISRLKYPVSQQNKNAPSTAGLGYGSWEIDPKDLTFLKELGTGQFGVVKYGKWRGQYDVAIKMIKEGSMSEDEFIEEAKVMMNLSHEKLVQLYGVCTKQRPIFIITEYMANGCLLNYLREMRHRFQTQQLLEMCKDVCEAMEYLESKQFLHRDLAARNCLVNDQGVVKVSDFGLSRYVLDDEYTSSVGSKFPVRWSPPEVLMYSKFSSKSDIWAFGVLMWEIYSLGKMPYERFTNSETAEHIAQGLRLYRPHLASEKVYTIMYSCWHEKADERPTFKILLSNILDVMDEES
Recorded residual activity values for a group of compounds are listed next.
METRIC: residual activity

{"COMPOUND": "COc1cc2ncnc(Nc3ccc(O)c(Br)c3)c2cc1OC", "TARGET UNDER TEST": "Tyrosine-protein kinase BTK (Homo sapiens) (UniProt Q06187)", "RESULT": "33%"}
{"COMPOUND": "Nc1n[nH]c2nnc(-c3c(-c4ccccc4)nn4ccccc34)cc12", "TARGET UNDER TEST": "Tyrosine-protein kinase BTK (Homo sapiens) (UniProt Q06187)", "RESULT": "47%"}
{"COMPOUND": "Cn1nc2c3c(cccc31)C(=O)c1ccccc1-2", "TARGET UNDER TEST": "Tyrosine-protein kinase BTK (Homo sapiens) (UniProt Q06187)", "RESULT": "76%"}
{"COMPOUND": "O=C1NC(=O)c2cc(Nc3ccc(F)cc3)c(Nc3ccc(F)cc3)cc21", "TARGET UNDER TEST": "Tyrosine-protein kinase BTK (Homo sapiens) (UniProt Q06187)", "RESULT": "87%"}
{"COMPOUND": "C[C@@H](N)[C@H]1CC[C@H](C(=O)Nc2ccncc2)CC1", "TARGET UNDER TEST": "Tyrosine-protein kinase BTK (Homo sapiens) (UniProt Q06187)", "RESULT": "104%"}
{"COMPOUND": "N#CC(C#N)=C(N)/C(C#N)=C/c1ccc(O)cc1", "TARGET UNDER TEST": "Tyrosine-protein kinase BTK (Homo sapiens) (UniProt Q06187)", "RESULT": "118%"}
{"COMPOUND": "Nc1cccc(-c2cc3c(Oc4cccc(O)c4)ncnc3[nH]2)c1", "TARGET UNDER TEST": "Tyrosine-protein kinase BTK (Homo sapiens) (UniProt Q06187)", "RESULT": "-1%"}
{"COMPOUND": "Oc1n[nH]c2nnc(-c3c(-c4ccccc4)nn4ccccc34)cc12", "TARGET UNDER TEST": "Tyrosine-protein kinase BTK (Homo sapiens) (UniProt Q06187)", "RESULT": "33%"}
{"COMPOUND": "CC#CC(=O)Nc1cc2c(Nc3ccc(F)c(Cl)c3)ncnc2cn1", "TARGET UNDER TEST": "Tyrosine-protein kinase BTK (Homo sapiens) (UniProt Q06187)", "RESULT": "16%"}
{"COMPOUND": "O=C1Nc2ccccc2/C1=C1/Nc2ccccc2/C1=N\\OCCC(O)CO (stereo not drawn)", "TARGET UNDER TEST": "Tyrosine-protein kinase BTK (Homo sapiens) (UniProt Q06187)", "RESULT": "-2%"}
{"COMPOUND": "O=c1c2ccccc2[nH]c(=S)n1CCN1CCC(=C(c2ccc(F)cc2)c2ccc(F)cc2)CC1", "TARGET UNDER TEST": "Tyrosine-protein kinase BTK (Homo sapiens) (UniProt Q06187)", "RESULT": "123%"}
{"COMPOUND": "CC(C)n1cnc2/c(=N/c3cccc(Cl)c3)nc(NCCO)[nH]c21", "TARGET UNDER TEST": "Tyrosine-protein kinase BTK (Homo sapiens) (UniProt Q06187)", "RESULT": "32%"}
{"COMPOUND": "COc1ccc(OC)c2c(=S)c3ccccc3[nH]c12", "TARGET UNDER TEST": "Tyrosine-protein kinase BTK (Homo sapiens) (UniProt Q06187)", "RESULT": "82%"}
